Value source: patent US20240116985A1

Target: T1, B-cat-Halo (UniProt P35222 1-781)
T1 sequence (looked up): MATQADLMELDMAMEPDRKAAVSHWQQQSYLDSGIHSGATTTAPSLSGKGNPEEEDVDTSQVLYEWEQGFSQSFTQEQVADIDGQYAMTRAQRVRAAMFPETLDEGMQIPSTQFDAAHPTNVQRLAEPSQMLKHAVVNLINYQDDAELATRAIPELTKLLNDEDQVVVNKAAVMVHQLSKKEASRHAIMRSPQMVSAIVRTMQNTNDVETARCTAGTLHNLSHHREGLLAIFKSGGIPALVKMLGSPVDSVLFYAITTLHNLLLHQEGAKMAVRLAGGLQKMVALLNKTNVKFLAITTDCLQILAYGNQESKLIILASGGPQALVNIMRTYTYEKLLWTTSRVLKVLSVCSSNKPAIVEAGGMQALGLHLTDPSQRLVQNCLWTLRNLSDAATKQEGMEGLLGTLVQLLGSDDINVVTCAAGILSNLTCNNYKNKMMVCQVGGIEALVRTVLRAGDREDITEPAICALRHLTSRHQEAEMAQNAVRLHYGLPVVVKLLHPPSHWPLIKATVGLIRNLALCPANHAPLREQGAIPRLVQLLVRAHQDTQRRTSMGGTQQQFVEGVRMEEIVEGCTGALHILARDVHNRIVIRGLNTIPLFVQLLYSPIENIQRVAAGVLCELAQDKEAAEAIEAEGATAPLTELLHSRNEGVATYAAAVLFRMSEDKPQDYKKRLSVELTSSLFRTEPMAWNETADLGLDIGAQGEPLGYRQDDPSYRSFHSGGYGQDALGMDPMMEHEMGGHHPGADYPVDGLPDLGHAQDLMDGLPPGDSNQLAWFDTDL
Experiment: cell-based or functional assay
Starred links: 1 amine or outer side, 2 acyl side, 3 side chain; linkers in the order of their positions; H or OH if unused. Positions of bridges follow the written chain, without caps; N, C: chain ends. Non-standard residues stand in square brackets, D forms with d. Primed or numbered codes have the meaning given here. No end group written: not given here. PyrS2″ = (S)-3-amino-1-((pent-4-en-1-yloxy)carbonyl)pyrrolidine-3-carboxylic acid (stapling residue), C=CCCCOC(=O)N1CC[C@@](N[*:1])(C(=O)[*:2])C1; B5(4) = 2,2-bis(4-pentenyl)glycine = 2-amino-2-(pent-4-en-1-yl)hept-6-enoic acid (stitching residue), C=CCCCC(CCCC=C)(N[*:1])C(=O)[*:2]; Phe(2-CF3) = N[C@@H](Cc1ccccc1C(F)(F)F)C(=O)O; Phe(2-Me) = Cc1ccccc1C[C@H](N)C(=O)O; Bta = N[C@@H](Cc1csc2ccccc12)C(=O)O; αAllylPro = C=CC[C@@]1(C(=O)O)CCCN1; tBuAla = CC(C)(C)C[C@H](N)C(=O)O
Class class 1: NanoBRET Abs IC50 at least 5 µM. Class class 0: NanoBRET Abs IC50 below 5 µM.

Worked examples, 3 binders total:
[
  {
    "Binder": "Ac-[αAllylPro]D[tBuAla][B5(4)]DDAAFL[PyrS2″][Phe(2-CF3)][Bta]Q-NH2 (staple 1-4, 4-11) [I-1318]",
    "Category": "class 0"
  },
  {
    "Binder": "Ac-[αAllylPro]D[tBuAla][B5(4)]DDAAFF[PyrS2″][2cbmF][Bta]Q-NH2 (staple 1-4, 4-11) [I-1316]",
    "Category": "class 1"
  },
  {
    "Binder": "[αAllylPro]D[tBuAla][B5(4)]DDAAFF[PyrS2″][Phe(2-Me)][Bta]Q-NH2 (staple 1-4, 4-11) [I-1326]",
    "Category": "class 1"
  }
]

Lab note: next binder to report on.
Item Ac-[αAllylPro]D[tBuAla][B5(4)]DDAAFL[PyrS2″][2cbmF][Bta]Q-NH2 (staple 1-4, 4-11) [I-1315] with NanoBRET Abs IC50 of 5 µM or above?
class 1
